src = ChEMBL document CHEMBL1687881

Tested on: A549
Experiment: Cytotoxicity against human A549 cells assessed as cell growth inhibition after 3 days by MTT assay
Type: functional, cell-based
Details: A549, 72 h
recorded_metric: IC50 (µM)
Numeric answer only, unit µM assumed.

// below: answered compounds
COc1cc([C@@H]2c3cc4c(cc3[C@@H](NC(=S)NC(=O)c3ccccc3Cl)[C@H]3COC(=O)[C@H]23)OCO4)cc(OC)c1O 10.3
COc1cc([C@@H]2c3cc4c(cc3[C@@H](NC(=S)NC(=O)c3ccc(C)cc3)[C@H]3COC(=O)[C@H]23)OCO4)cc(OC)c1O 11.3

Then this compound:
Prompt: Give the reported IC50 for COc1cc([C@@H]2c3cc4c(cc3[C@@H](NC(=S)NC(=O)c3ccccc3C)[C@H]3COC(=O)[C@H]23)OCO4)cc(OC)c1O (system: A549).
Response: 12.2
